target-under-test: T1, HIV-1 Tat-derived peptide RKKRRQRRRPPQGS (Human immunodeficiency virus 1)
T1 chain: RKKRRQRRRPPQGS
assay-overview: EMSA; 38.3% active RNA
study-conditions: protein: synthetic; tags: synthetic peptide, American Peptide Co; HIV LAI isolate; label: 5'-32P; linker-bridged hairpin with UCU bulge
measurement-kind: Kd (nM)

In [3]: df
Out[3]:
                                     binder  measurement_kind  measurement
0  GGAGAUCUGAGCGCUCUCUCC (ssRNA, two coupled linkers B replace 6-nt loop between the two strands) [TAR conjugate 5BB]                Kd         1.13
